Property: TGI; scope: individual compounds
- Test system: CAKI-1 renal
- protocol_summary: NCI tumour cell line growth inhibition, 48 h
Where a SMILES comes first, the peptide text is derived from it.

compound	TGI
COc1cc(/C=C2\C(=O)Nc3ccc(Cl)cc32)cc(OC)c1OC	> 100 µM
CC1=C(O)C(=O)C2C(=O)C1C(C)C2c1ccccc1 (stereo not drawn)	> 100 µM
COc1cc(/C=C/C(=O)c2ccccc2O)ccc1OCCCOc1cc2c(cc1OC)C(=O)N1CCC[C@H]1C=N2	0.313 µM
O=C1NN(C(=O)c2ccccc2)C(c2ccc(Cl)c(Cl)c2)=C/C1=C\c1ccccc1[N+](=O)[O-]	> 6.75 µM
CSc1nc2nccnc2c(=O)[nH]1	> 100 µM
CC(=O)NC(CS)C(=O)NC(CO)C(=O)NC(CO)C(=O)NC(Cc1c[nH]c2ccccc12)C(=O)N1CCCC1C(=O)NC(CO)C(=O)NC(Cc1c[nH]c2ccccc12)C(=O)NC(Cc1c[nH]cn1)C(=O)NC(CO)C(=O)NC(Cc1c[nH]c2ccccc12)C(=O)NCC(=O)NCC(=O)NC(C)C(=O)NC(CCC(N)=O)C(=O)NC(CCCCN)C(=O)NC(C)C(=O)NC(CCCNC(=N)N)C(=O)NC(CCCCN)C(N)=O (stereo not drawn) (Ac-CSSWPSWHSWGGAQKARK-NH2; configuration not given here)	33.6 µM
COc1cc2c(c(OC)c1OC)-c1ccc(OC)c(=O)cc1C(NC(=O)CCCCCNc1ccc(N=[N+]=[N-])cc1[N+](=O)[O-])CC2 (stereo not drawn)	18.4 µM
COc1cc(-c2n/c(=C\c3c(O)[nH]c4ccccc34)cc3c2=Nc2ccccc2-3)ccc1F	> 100 µM

---

- Test system: K-562 leukemia
- protocol_summary: NCI tumour cell line growth inhibition, 48 h

molecule	TGI
CC(C)(C)OC(=O)NC(Cc1ccccc1)C(=S)N1CCCC1 (centres undefined)	> 100 µM
O=C(O)CN1CCN2CCCCCCCCN(CC1)CCN(CC(=O)O)CC2	> 100 µM
CC1(C)CC[C@]2(C)[C@@H](O)C[C@]3(C)C(=CC[C@@H]4[C@@]5(C)CC[C@H](O)C(C)(C)[C@@H]5CC[C@]43C)[C@@H]2C1	> 100 µM
Cc1ccc(N2C=Nn3c(nc4sc5c(c4c3=O)CCCC5)C2)cc1	> 100 µM
CC(C)(C)c1ccc(NS(=O)(=O)c2ccc(N)cc2)cc1	41.7 µM
COC(=O)CCCCCOS(=O)(=O)c1ccc(C)cc1	> 100 µM
CN(CCO)CCC1COc2ccccc2O1 (centres undefined)	> 10 µM
CC1(C)CC[C@]2(C(=O)NCCNCCN)CC[C@]3(C)C(=CC[C@@H]4[C@@]5(C)CCC(=O)C(C)(C)[C@@H]5CC[C@]43C)[C@@H]2C1	> 100 µM
N#Cc1ccc2[nH]cc(Cc3c[nH]c4ccc(C#N)cc34)c2c1	> 50 µM

---

- System: A549 NSCLC
- protocol_summary: NCI tumour cell line growth inhibition, 48 h
observable: TGI

compound	observable	val
C=C(C)[C@@]12C[C@H](OC(=O)[C@H](O)[C@@H](NC(=O)c3ccccc3)c3ccccc3)C(C)=C1[C@@H](OC(C)=O)C(=O)[C@@]1(C)C([C@@H]2OC(=O)c2cc(F)cc(F)c2)C2(OC(C)=O)CO[C@@H]2C[C@@H]1O (some centres undefined)	TGI	> 6.61 µM
O=c1c2ccccc2ncn1COCc1ccccc1	TGI	> 100 µM
Cc1ccc(S(=O)(=O)NC(Cc2ccccc2)C(=O)CCl)cc1 (centres undefined)	TGI	31.5 µM
C/C=C(\C)C(=O)OC1C2C(C)=CC(=O)C(O)C2(C)C2C3(O)OCC24C1OC(=O)C(OC(C)=O)C4C(C)C3O (centres undefined)	TGI	0.648 µM

---

- System: K-562 leukemia
- protocol_summary: NCI tumour cell line growth inhibition, 48 h

molecule	TGI
Cc1cn(CC2(CO)CCC2)c(=O)[nH]c1=O	> 100 µM
CC(=O)N(N=O)c1ccc(N(N=O)C(C)=O)cc1	> 100 µM
CCCC(=O)Oc1ccc(/C=N/NC(N)=S)nc1	> 100 µM
O=c1c2ccccc2ncn1COCc1ccccc1	> 100 µM
O=C(N/N=C/c1ccc([N+](=O)[O-])cc1)c1ccccc1Nc1ccnc(C(F)(F)F)c1	> 100 µM
C#Cc1cccc(Nc2nc(C)nc3cc(NC(=O)CCl)ccc23)c1	3.65 µM
O=C1CC=C2C3CC4N(CCC45c4ccccc4N1C25)C/C3=C\CO (stereo not given)	> 100 µM
N[C@@H](Cc1c[nH]c2ccccc12)C(=O)NC1CCN(Cc2c[nH]c3ccc(Cl)cc23)CC1	12.5 µM
C=CCC1(CN(C)C)CC/C(=C\c2cc(OC)c(OC)c(OC)c2)C1=O (stereo not given)	54.1 µM
C/C1=C\[C@@H](C)C[C@@H](C)OC(=O)[C@@H](C)NC(=O)[C@H](Cc2ccc(O)c(Br)c2)N(C)C(=O)CNC(=O)[C@H](C)C1	> 100 µM

---

- System: SF-539 CNS
- protocol_summary: NCI tumour cell line growth inhibition, 48 h

compound	TGI
O=C(O)CN1CCN2CCCCCCCCN(CC1)CCN(CC(=O)O)CC2	> 100 µM
NS(=O)(=O)c1ccc(N=Nc2ccc(O)cc2)cc1	> 100 µM
N#Cc1c(N)c(C(=O)c2ccc3c(c2)OCCO3)n2c1CCCC2	7.63 µM
Cc1cccc2c(=O)c3c(sc12)c(NCCCN)nc1ccccc13	3.09 µM
CCOc1cc2c(cc1O)C=C[C@@H]1[C@@H]2CC[C@]2(C)[C@@H](O)CC[C@@H]12	7.03 µM
CN1C(c2ccccc2)CC(=NO)CC1c1ccccc1 (stereo unspecified)	> 100 µM

---

- Tested on: NCI-H460 lung
- protocol_summary: NCI tumour cell line growth inhibition, 48 h
Property: TGI; scope: individual molecules

molecule	comparison_operator	TGI / µM
CCOc1ccc(Nc2ccnc3cc(Cl)ccc23)cc1	>	100
COc1nc(NC2OC(COC(C)=O)C(OC(C)=O)C(OC(C)=O)C2OC(C)=O)c(N=C(C)C(C)=O)c(=O)n1C (stereo not given)	>	100
COc1ccc(C/C=C(\C)CCO)cc1	>	100
COc1ccc(-c2oc3ncnc(N)c3c2-c2ccc(NC(=O)Nc3cc(C(F)(F)F)ccc3F)cc2)cc1	=	2.97
N=C1c2ccccc2C(=O)c2c(NCCNCCO)ccc(O)c21	=	15.1
COc1ccc2c(c1)C(=O)/C(=C/c1ccc(O)cc1)O2	=	50.3
NCCCNCc1c2ccccc2c(CNCCCN)c2ccccc12	=	32.6
N/C(=C\c1ccc(/C=C(\NC(=O)c2ccccc2)c2nc3c([nH]2)C(=O)c2ccccc2C3=O)cc1)c1nc2c([nH]1)C(=O)c1ccccc1C2=O	=	36.4
COC(=O)CCCCCOS(=O)(=O)c1ccc(C)cc1	>	100
Cc1ccc(F)c2[nH]c(-c3ccccc3)cc(=O)c12	>	100

---

- Test system: OVCAR-5 ovarian
- protocol_summary: NCI tumour cell line growth inhibition, 48 h
observable: GI50

line_notation	val
CC(=O)CCc1ccc(Oc2c3ccccc3nc3occc23)cc1	19 µM
COc1ccc2c(c1)/C(=C\c1c(-c3ccccc3)nc3sccn13)C(=O)N2	5.13 µM
COc1ccc(-c2c(NC(=O)Nc3ccc(Cl)c(C(F)(F)F)c3)cnn2-c2ccc(S(N)(=O)=O)cc2)cc1	3.54 µM
COc1nc2c(c(=O)n1C)CN(c1ccccc1)C(=O)CN2C	> 100 µM
NC(=O)c1ccc(I)c([N+](=O)[O-])c1	25.5 µM

---

- System: UO-31 renal
Outcomes: True for active, False for inactive

compound	group_label
COc1ccc(-c2oc3ncnc(N)c3c2-c2ccc(NC(=O)Nc3cc(C(F)(F)F)ccc3F)cc2)cc1	False
Cc1cc(C)c([I+]c2c(C)cc(C)cc2C)c(C)c1	False
C[C@]1(c2nc3c(C(N)=O)cccc3[nH]2)CCCN1	False
Cc1cccc2c(=O)c3c(sc12)c(NCCCN)nc1ccccc13	False
COc1ccc2c(c1)C(=O)c1c-2n(CCCN=[N+]=[N-])c(=O)c2cc([N+](=O)[O-])ccc12	True
COc1ccc(-c2c(NC(=O)Nc3ccc(Cl)c(C(F)(F)F)c3)cnn2-c2ccc(S(N)(=O)=O)cc2)cc1	False
O=C1NN(C(=O)c2ccccc2)C(c2ccc(Cl)c(Cl)c2)=C/C1=C\c1ccccc1[N+](=O)[O-]	False
COc1ccc(NC(=O)c2ccc(C(F)(F)F)nc2Nc2ccc(Cl)cc2C)cc1Cl	False
O=c1oc2ccc(F)cc2c(=O)n1-c1ccc(I)cc1F	True
O=C(Nc1ccc(Cl)cc1)c1cc(NCc2cc(O)ccc2O)ccc1O	False
COc1cccc(C2SC(C)C(=O)N2NC(=O)C(O)c2ccccc2)c1 (centres undefined)	False
O=C(N/N=C/c1ccc([N+](=O)[O-])cc1)c1ccccc1Nc1ccnc(C(F)(F)F)c1	False
O=C1/C(=C/c2ccc(Cl)cc2)N=C(c2ccccc2)N1c1cc(C(F)(F)F)ccc1Cl	False
COC(=O)[C@@H](C)C[C@H](Cc1ccc(F)cc1)NC(=O)c1csc([C@@H](C[C@H](C(C)C)N(C)C(=O)[C@@H](NC(=O)[C@H]2CCCCN2C)C2CC2)OC(C)=O)n1	False
NC(CCl)=NCC12CC3CC(CC(C3)C1)C2	False
CCC(CO)Nc1nc(NCc2ccccc2)c2n[nH]c(C(C)C)c2n1 (centres undefined)	False
COc1cc(/C=C/C(=O)c2ccccc2O)ccc1OCCCOc1cc2c(cc1OC)C(=O)N1CCC[C@H]1C=N2	True
CO[C@H]1/C=C/O[C@@]2(C)Oc3c(C)c(O)c4c(O)c(c(/C=N/N5C(C)CN(Cc6ccc(C#N)cc6)CC5C)c(O)c4c3C2=O)NC(=O)/C(C)=C\C=C\[C@H](C)[C@H](O)[C@@H](C)[C@@H](O)[C@@H](C)[C@H](OC(C)=O)[C@@H]1C (some centres undefined)	False
CCCCNC(=O)Oc1ccc(/C(=C(\C)c2ccc(OC)cc2)c2ccc(OCCN3CCCCC3)cc2)cc1	False

# credit: PubChem BioAssay (NCI)
